target: G protein-activated inward rectifier potassium channel 2 (Homo sapiens) + G protein-activated inward rectifier potassium channel 1 (Homo sapiens) (UniProt P48051+P48549); experiment: GIRK1/2 thallium flux modulators, retest, confirmation, cell-based, HEK293 rmGlu8/hGIRK1/2, FluoZin-2 (AID 623911); conditions: HEK293 rmGlu8/hGIRK1/2, thallium flux FluoZin-2; actives lie on both sides; glutamate co-added at its EC20 level
Sequence (P48051 whole entry, looked up): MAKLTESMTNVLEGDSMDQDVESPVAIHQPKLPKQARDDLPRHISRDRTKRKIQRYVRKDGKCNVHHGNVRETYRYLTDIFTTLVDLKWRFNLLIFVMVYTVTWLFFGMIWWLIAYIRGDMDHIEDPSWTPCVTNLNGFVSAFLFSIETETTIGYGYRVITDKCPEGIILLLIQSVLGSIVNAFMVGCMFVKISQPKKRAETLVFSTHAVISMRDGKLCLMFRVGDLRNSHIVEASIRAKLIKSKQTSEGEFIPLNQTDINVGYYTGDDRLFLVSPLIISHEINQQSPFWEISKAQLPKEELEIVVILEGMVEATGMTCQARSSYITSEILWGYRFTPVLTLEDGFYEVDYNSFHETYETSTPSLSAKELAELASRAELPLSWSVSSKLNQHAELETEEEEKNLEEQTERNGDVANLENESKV
Sequence (P48549 whole entry, looked up): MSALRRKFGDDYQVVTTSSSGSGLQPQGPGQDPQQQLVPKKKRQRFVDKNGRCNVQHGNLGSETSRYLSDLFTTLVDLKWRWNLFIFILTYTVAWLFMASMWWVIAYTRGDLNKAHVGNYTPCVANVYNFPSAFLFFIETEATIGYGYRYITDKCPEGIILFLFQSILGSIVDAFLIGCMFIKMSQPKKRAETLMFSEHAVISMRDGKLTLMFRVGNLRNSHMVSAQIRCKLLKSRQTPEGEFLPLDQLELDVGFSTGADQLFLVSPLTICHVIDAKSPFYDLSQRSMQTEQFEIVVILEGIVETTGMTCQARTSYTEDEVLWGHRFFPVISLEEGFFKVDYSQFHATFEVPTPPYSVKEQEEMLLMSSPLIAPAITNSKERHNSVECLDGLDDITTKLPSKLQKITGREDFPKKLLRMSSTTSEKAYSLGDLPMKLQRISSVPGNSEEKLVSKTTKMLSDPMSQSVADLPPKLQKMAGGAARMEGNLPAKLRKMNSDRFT
The whole screen tested about 2,100 compounds, of which about 770 (37%) were called active. The list shows a part of the results.
Assign satisfied whenever manual score does not fall below 0; assign not satisfied whenever it does.

Look over these answered cases.
Req: Is reported manual score greater than or equal to 0 here: `COc1ccc(C(=O)NC(=S)NNC(=O)CCc2ccccc2)cc1`
Resp: satisfied

Req: Is reported manual score greater than or equal to 0 here: `COc1ccc(C(=O)CC(=O)C(=O)NCCc2cccc(C)c2)cc1`
Resp: satisfied

Req: Is reported manual score greater than or equal to 0 here: `O=C(CSc1nnnn1-c1cccc2c1CCCC2)NC1CCCC1`
Resp: not satisfied

Next:
Req: Is reported manual score greater than or equal to 0 here: `CCN(CC)c1ccc2cc(-c3nnc(-c4ccccc4)o3)c(=O)oc2c1`
Resp: satisfied

* * *

molecular target: G protein-activated inward rectifier potassium channel 2 (Homo sapiens) + G protein-activated inward rectifier potassium channel 1 (Homo sapiens) (UniProt P48051+P48549); assay: GIRK1/2 thallium flux modulators, retest, confirmation, cell-based, HEK293 rmGlu8/hGIRK1/2, FluoZin-2 (AID 623911); settings: HEK293 rmGlu8/hGIRK1/2, thallium flux FluoZin-2; actives lie on both sides; glutamate co-added at its EC20 level
The campaign covered roughly 2,100 compounds. About 770 (37%) were called active. The list shows a part of the results.
quantityName: manual score
One number for each entry.

Worked examples, 6 compounds total:
Req: Entry CCCCn1c(=N)n(CC(O)COc2cccc(C)c2)c2ccccc21 (centres undefined) has what manual score?
Resp: -1

Req: Entry Cc1cccc(OCC(O)CN2C(C)(C)CC(O)CC2(C)C)c1 (centres undefined) has what manual score?
Resp: 0

Req: Entry `CCCCn1c(=O)nc2n(-c3ccccc3)c3ccccc3cc-2c1=O` has what manual score?
Resp: 0

Req: Entry `CC(C)CNC(=S)NC(=O)c1ccc(Cl)cc1Cl` has what manual score?
Resp: 1

Req: Entry `COc1ccc(-n2c(=S)[nH]c3ccccc32)cc1` has what manual score?
Resp: 0

Req: Entry COc1ccc(C2c3ccc4ccccc4c3Oc3ncn(CCN4CCOCC4)c(=N)c32)cc1 (centres undefined) has what manual score?
Resp: -1

Please supply manual score for each of the following items, keeping them in order.
1. Cc1cccc(C(=O)NC(=S)NNC(=O)c2ccccc2Cl)c1
2. CC(=O)c1cccc(NC(=S)NC(=O)c2cccc(Cl)c2)c1
3. CCCn1c(=N)n(CCOc2ccc(OC)cc2)c2ccccc21

Resp:
[1, 1, -1]

* * *

molecular target: G protein-activated inward rectifier potassium channel 2 (Homo sapiens) + G protein-activated inward rectifier potassium channel 1 (Homo sapiens) (UniProt P48051+P48549); experiment: GIRK1/2 thallium flux modulators, retest, confirmation, cell-based, HEK293 rmGlu8/hGIRK1/2, FluoZin-2 (AID 623911); settings: HEK293 rmGlu8/hGIRK1/2, thallium flux FluoZin-2; actives lie on both sides; glutamate co-added at its EC20 level
About 770 (37%) of roughly 2,100 compounds were called active.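 The calls were made as follows: active = by-eye trace score of 1 for enhancers or -1 for inhibitors, so actives lie on both sides (some results past the limit were not filed as active); inactive = score 0, or 3 fluorescent, or 4 baseline rise.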 Some of the results follow.
// allowed return values: 1 for active, 0 for inactive

Req: Test call, this molecule: `COc1ccc(Br)cc1CNC(=O)Nc1cccs1`
Resp: 1

Req: Test call, this molecule: CCC(/C=N/NC(=O)C1COc2ccccc2O1)CC (stereo not drawn)
Resp: 1

Req: Test call, this molecule: `COc1ccc2c(c1)C(C)=CC(C)(C)N2C(=O)CNCc1ccc2c(c1)OCO2`
Resp: 1

Next:
Req: Test call, this molecule: `Fc1ccccc1NC(=S)NN(Cc1ccccc1)c1ccccc1`
Resp: 1

Req: Test call, this molecule: `O=C(Nc1ccccc1C(=O)N/N=C/c1ccco1)c1ccccc1`
Resp: 0

Req: Test call, this molecule: `Cc1ccccc1CNC(=O)Nc1cccs1`
Resp: 1
